- target-under-test: T1, human Galectin-3 (Gal3), full-length recombinant (human, UniProt P17931 2-250)
- T1 construct: treated here as one molecule; also called hGAL3; hGal3
- T1 sequence (P17931 2-250 limits assumed): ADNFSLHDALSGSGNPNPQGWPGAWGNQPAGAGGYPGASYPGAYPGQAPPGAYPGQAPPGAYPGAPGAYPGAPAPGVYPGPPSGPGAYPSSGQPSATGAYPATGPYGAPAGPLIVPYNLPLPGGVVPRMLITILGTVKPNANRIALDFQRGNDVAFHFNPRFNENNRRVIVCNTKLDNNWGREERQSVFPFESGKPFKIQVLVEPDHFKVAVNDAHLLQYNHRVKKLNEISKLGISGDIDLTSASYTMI
- method-notes: blocking ELISA, Gal3 coated, biotin-Abeta42 peptide
Reported % blocking of Gal3-Abeta42 peptide binding values for a set of binders

binder	obs-value
F846C.2H3 (antibody, human IgG4 S228P, kappa, V domains shown, also called 846.2H3) VH: QIQLVQSGPELKKPGETVKISCKASGYTFTNYGMNWVKQAPGKGLKWMGWINTYTGEPSYADDFKGRFAFSLETSASTAYLQINNLKNEDMATYFCARWGGYDGDYYAMDYWGQGTSVTVSS VL: NIMMTQSPSSLAVSAGEKVTMSCKSSQSVLYSSNQKNYLAWYQQKPGQSPKLLIYWASTRESGVPDRFTGSGSGTDFTLTISSVQPEDLAVYYCHQYLSSLTFGAGTKLELKR	> 90%
F846C.1B2 (antibody, human IgG4 S228P, kappa, V domains shown, also called 846.1B2) VH: QIQLVQSGPELKKPGETVKISCKASGYTFTNYGMNWVKQAPGKGLKWMGWINTYTGEPSYADDFKGRFAFSLETSASTAYLQINNLKNEDMATYFCARWGGYAGDYYAMDFWGQGTSVTVSS VL: NIWLTQSPSSLAVSAGEMVTMTCKSSQSVLYSSNQKNYLAWYQQKPGQSPKLLIYWASTRESGVPDRFTGSGSGTDFSLTISSVQAEDLAVYYCHQYLSSLTFGAGTKLELKR	> 90%
19B5.2E6 (antibody, mouse IgG2a, V domains shown) VH: QIQLVQSGPELKKPGETVKISCKASGYTFTTYAMSWVKQAPGKGLKWMGWINTYSGVPTYADDLKGRFAFSLETSASTAYLQINNLKNEDTATYFCARGPYAMDYWGQGTSVTVSS VL: DIQMTQTTSSLSASLGDRVTISCSASQGINNYLNWYQQKPDGTVKLLIYYASSLHSGVPSRFSGSGSGTDYSLTISNLEPEDIATYYCQQYSQVPYTFGSGTKLEIKR	> 90%
15G7.2A7 (antibody, human IgG4 S228P, kappa, V domains shown, also called 15FG7.2A7) VH: EVQLQQSGPELVKPGASVKISCKASGYTFTDYYMNWVKQSHGKSLEWIGDINPNNGGTNYNQKFKGKATLTVDKSSSTAYMELRSLTSEDSAVYYCTSGYGFPYWGQGTLVTVSA VL: DIQMNQSPSSLSASLGDTISITCRASQNINIWLSWYQQKPGNIPQLLIYKASNLHTGVPSRFSGSGSGTDFTLTISSLQPEDIATYYCLQGQSYPLTFGAGTKLVMKR	> 90%

Could you now look at the following binder, please?
Qu. Record request: % blocking of Gal3-Abeta42 peptide binding value, item TB006 (antibody, V domains shown, Humanized variant derived from murine 4A11.2B5; also called 4A11.H3L1; IMT006) VH: QVQLVQSGAEVKKPGASVKVSCKASGYSFTNYYMHWVRQAPGQRLEWMGWIYPGSGNTNYNEKFQGRVTITADTSASTAYMELSSLRSEDTAVYYCSTAPGGFDVWGQGTTVTVSS VL: DIVMTQTPLSLSVTPGQPASISCKSSKSLLHSDGITYLYWYLQKPGQSPQLLIYRMSNLASGVPDRFSGSGSGTDFTLKISRVEAEDVGVYYCAQMLEFPLTFGQGTKLEIKR
Ans. > 90%

Data origin: patent US20250145722A1
